Test system: Saccharomyces cerevisiae lifespan shortening, growth inhibition
Assay: yeast lifespan shortening compounds, dose response (AID 849);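 note: yeast growth read as optical density after two days at 30 degrees C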
Activity calls are given as the source filed them. The rule behind the calls is not given here.
Your response should consist of one outcome taken from yes for active, no for inactive

Check out these entries, answers already filled in.
compound=CCOC(=O)c1c(N)sc2c(OC)c(Br)ccc12 tested_target="Saccharomyces cerevisiae lifespan shortening, growth inhibition" assigned_class=no
compound=O=c1c2sc(-c3ccccc3)cc2nc2n1CCC2 tested_target="Saccharomyces cerevisiae lifespan shortening, growth inhibition" assigned_class=yes
compound=CNC(=O)c1cc2c(ccc3ccccc32)oc1=N tested_target="Saccharomyces cerevisiae lifespan shortening, growth inhibition" assigned_class=yes
compound=Cn1c(C(=O)N2CCC(C(=O)N3CCN(Cc4ccc5c(c4)OCO5)CC3)CC2)cc2sccc21 tested_target="Saccharomyces cerevisiae lifespan shortening, growth inhibition" assigned_class=no
compound=CC1(C)Cc2c(C#N)c(N)sc(=S)c2CO1 tested_target="Saccharomyces cerevisiae lifespan shortening, growth inhibition" assigned_class=no
compound=Cn1c2ccccc2c2cc(C(=O)O)ccc21 tested_target="Saccharomyces cerevisiae lifespan shortening, growth inhibition" assigned_class=yes

Could you now look at the following compound, please?
*Q* Could you kindly confirm the outcome this assay logged for CCOC(=O)c1cnc(-n2nc(C)cc2C)nc1NC1CCCCC1 ?
*A* yes

* * *

System: Saccharomyces cerevisiae lifespan shortening, growth inhibition
Test: yeast lifespan shortening compounds, dose response (AID 849);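 note: yeast growth read as optical density after two days at 30 degrees C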
Calls of active or inactive are those of the source. How the calls were made is not given here.
// one of y for active, n for inactive, no free text

# example entries with known answers
compound="O=S(=O)(NC1CC2CCC1C2)c1ccc(Br)s1 (configuration not stated)" assigned_class=y
compound=COc1ccc(/C=C2/C(=O)ON=C2c2ccccc2)cc1OC assigned_class=y
compound=COc1ccccc1OCC(=O)n1cc(C(=O)c2cc(Cl)cc(Cl)c2O)cn1 assigned_class=y
compound="Clc1ccc(COC(Cn2ccnc2)c2ccc(Cl)cc2Cl)c(Cl)c1 (configuration not stated)" assigned_class=y
compound=CN1C(=O)c2cccc3c(Cl)ccc(c23)C1=O assigned_class=n
compound=Cc1nc2c(F)c(F)c(C(F)(F)F)c(F)c2[nH]1 assigned_class=n

*Q* What outcome does the record of this test show for COc1ccc2c(c1)c1nnc(SC)nc1n2C ?
*A* y

* * *

Test system: Saccharomyces cerevisiae lifespan shortening, growth inhibition
Test: yeast lifespan shortening compounds, dose response (AID 849);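 note: yeast growth read as optical density after two days at 30 degrees C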
Active and inactive are the calls of the source. No rule for the calls is given here.
Reported IC50 values are given for each entry in this list.

compound=Cn1c(=O)c(C(=O)Nc2ncccn2)c(O)c2ccccc21 tested_target="Saccharomyces cerevisiae lifespan shortening, growth inhibition" meas_value="33 µM"
compound="Cc1ccc(CNC(=O)CS(=O)Cc2nc(-c3cccs3)oc2C)cc1 (centres undefined)" tested_target="Saccharomyces cerevisiae lifespan shortening, growth inhibition" meas_value="> 100 µM (inactive)"

*Q* Fill in reported IC50 for this entry: Cc1ccc2c(c1)C(=NC1CCCCC1)c1cc3ccccc3nc1-2
*A* 41.3 µM

*Q* Given CCCCn1c(=O)c(C(=O)NCc2ccncc2)c(O)c2ccccc21 , respond with its IC50.
*A* > 100 µM (inactive)

*Q* Assign IC50 to the following record: CC(N=Cc1cccc(O)c1O)c1ccccc1 (centres undefined)
*A* 9.02 µM

*Q* # return recorded IC50 for input O=C(/C(=N/N=C/c1ccc(O)c(O)c1O)c1ccccc1)c1ccccc1
*A* 25.8 µM

*Q* Tell us which IC50 value is on record for OCCN(CCO)CC(O)COc1ccc(C23CC4CC(CC(C4)C2)C3)cc1 (centres undefined)
*A* 35.7 µM

*Q* Find the measured IC50 of Cc1ccc(C(=O)c2c(C)oc3c2C(=O)C(=O)c2ccccc2-3)cc1 and report it.
*A* 48.1 µM

*Q* Check the records and state IC50 for Cc1c(C=O)c2ccccn2c1C(=O)c1ccncc1
*A* > 100 µM (inactive)

*Q* For the compound NNC(=O)c1cccc(COc2ccc3c(c2)CCC3)c1 , give its reported IC50.
*A* 17.3 µM

* * *

System: Saccharomyces cerevisiae lifespan shortening, growth inhibition
Test: yeast lifespan shortening compounds, dose response (AID 849);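 note: yeast growth read as optical density after two days at 30 degrees C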
The source made the active and inactive calls. The rule behind the calls is not given here.
Your answer must be one of the following: Yes (active), No (inactive)

molecule=O=C1c2cccc3c(Cl)ccc(c23)C(=O)N1O assigned_class=Yes

*Q* Short answer needed: outcome of this test for O=[N+]([O-])c1ccc(N=Nc2ccc(O)cc2O)cc1 ?
*A* Yes

*Q* Can you look up the reported call for O=C(O)CCSc1nnc(-c2ccccc2)n1-c1ccccc1 for me?
*A* No

*Q* How was COc1ccccc1OCCCc1c(C)n[nH]c1C classified in this test?
*A* Yes

*Q* Could you check what this test reported for CC1=NOC(=O)/C1=C\c1ccc(-c2ccc(Cl)cc2Cl)o1 ?
*A* No

*Q* Answer briefly: the call reported for Cc1ccc(-c2nc3sc(C(N)=O)c(N)c3c3c2CCCC3)cc1 in this assay.
*A* No

*Q* Test call for this molecule, please: O=[N+]([O-])c1ccc(C2Oc3ccccc3C3CC(c4ccccc4)=NN32)s1 (configuration not stated)
*A* No

*Q* Give the logged outcome of this assay for the following molecule: O=C(Cc1ccccc1)NCCc1cn2ccsc2n1
*A* No

*Q* How did this test come out for CCOC(=O)c1c(-c2ccc(-c3ccccc3)cc2)csc1NC(=O)CCN1CCOCC1 ?
*A* Yes

*Q* Kindly provide the recorded test outcome for the following molecule: Cc1ccc(NC(=O)ON=C2CCCC2)cc1
*A* Yes

*Q* Test call for this molecule, please: FC(F)Sc1ccc(Nc2ncnc3nc[nH]c23)cc1
*A* No

*Q* Recorded test outcome, item CCCCCC/C(C)=C1/SC(=S)NC1=O
*A* No

*Q* Please let me know the test result on file for COC(=O)c1ccc(C(=O)OC)c(NC(=O)CSc2cccc[n+]2[O-])c1 .
*A* Yes

*Q* Give the logged outcome of this assay for the following molecule: O=S(=O)(Nc1ccc(-c2csc(-c3ccccc3)n2)cc1)c1ccc(F)cc1
*A* No

*Q* What did this assay record as the result for CC(C)(Oc1ccc(Cl)cc1)C(=O)NC1=NN(c2ccccc2)C(=O)C1 ?
*A* Yes

*Q* Per the assay record, what outcome was assigned to CC(C)(CNC(=S)NCCc1ccccc1)CNC(=S)NCCc1ccccc1 ?
*A* No

*Q* Record lookup: outcome of this test for COC1=C(c2ccccc2)C(=O)c2ccccc2C1=O ?
*A* Yes

* * *

Test system: Saccharomyces cerevisiae lifespan shortening, growth inhibition
Test: yeast lifespan shortening compounds, dose response (AID 849);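 note: yeast growth read as optical density after two days at 30 degrees C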
Active and inactive are the calls of the source. No rule for the calls is given here.
Valid outcomes are listed here; reply with one: active, inactive

compound=Cc1nn(-c2ccc(F)cc2)c2sc(C(=O)O)cc12 assigned_class=active

*Q* Could you check what this test reported for Cc1c2cc(O)c(=O)cc-2oc2cc(O)c(O)cc12 ?
*A* active

*Q* How did this test come out for COc1cccc(/C=N/N2C(=O)CSC2=S)c1O ?
*A* inactive

*Q* How did this test come out for O=c1cc(C(F)(F)F)[nH]c2c(C(F)(F)F)cccc12 ?
*A* active

* * *

Tested on: Saccharomyces cerevisiae lifespan shortening, growth inhibition
Test: yeast lifespan shortening compounds, dose response (AID 849);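 note: yeast growth read as optical density after two days at 30 degrees C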
The source made the active and inactive calls. The rule behind the calls is not given here.
Response enum: 1 (yes) (active), 0 (no) (inactive)

compound=COc1ccccc1-n1c(=O)oc2ccc(Cl)cc2c1=O tested_target="Saccharomyces cerevisiae lifespan shortening, growth inhibition" assigned_class="0 (no)"
compound=Cc1cccc(N=Nc2ccc(O)c3ncccc23)c1 tested_target="Saccharomyces cerevisiae lifespan shortening, growth inhibition" assigned_class="1 (yes)"
compound=CCCc1ccc(Oc2cn[nH]c2-c2ccc(O)c(C)c2O)cc1 tested_target="Saccharomyces cerevisiae lifespan shortening, growth inhibition" assigned_class="1 (yes)"
compound="CN1C(=O)C(O)(CC(=O)c2ccccc2O)c2cc(Br)ccc21 (centres undefined)" tested_target="Saccharomyces cerevisiae lifespan shortening, growth inhibition" assigned_class="0 (no)"
compound="Fc1ccc(N/N=C2/CC(c3ccccc3)Oc3ccccc32)c(F)c1 (centres undefined)" tested_target="Saccharomyces cerevisiae lifespan shortening, growth inhibition" assigned_class="1 (yes)"
compound=Cc1ccc(C(=O)O)cc1N=Cc1cc(Br)cc(Br)c1O tested_target="Saccharomyces cerevisiae lifespan shortening, growth inhibition" assigned_class="1 (yes)"
compound="COc1ccc(Br)cc1C1CC(=O)N2CN(C)CSC2=C1C#N (centres undefined)" tested_target="Saccharomyces cerevisiae lifespan shortening, growth inhibition" assigned_class="0 (no)"
compound=CC(C)CC(=O)/C(=C\c1ccc(Cl)cc1Cl)n1cncn1 tested_target="Saccharomyces cerevisiae lifespan shortening, growth inhibition" assigned_class="1 (yes)"

Okay, now this compound:
*Q* Given COc1ccc(C(=O)NC(=S)NNC(=O)c2cnccn2)cc1 , state the outcome it received in this test.
*A* 1 (yes)

* * *

Test system: Saccharomyces cerevisiae lifespan shortening, growth inhibition
Assay: yeast lifespan shortening compounds, dose response (AID 849);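 note: yeast growth read as optical density after two days at 30 degrees C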
Calls of active or inactive are those of the source. The rule behind the calls is not given here.
readout-name: IC50

compound="Cc1ccc(NC(=O)CSC2=C(C#N)C(c3ccc4c(c3)OCO4)C3=C(CCCC3=O)N2)c(C)c1 (stereo not given)" readout_name=IC50 meas_value="> 100 µM (inactive)"
compound=O=C1Cc2ccccc2C(=O)N1CCc1ccccc1 readout_name=IC50 meas_value="> 100 µM (inactive)"
compound=Fc1ccc(-c2ccc(-c3nn4c(-c5ccco5)nnc4s3)o2)cc1 readout_name=IC50 meas_value="> 100 µM (inactive)"
compound="CCCCCCCCCCCCCCCC(O)C(N)CO (stereo not given)" readout_name=IC50 meas_value="33.4 µM"
compound=N#C/C(=N/O)c1nc(-c2ccc(F)cc2)cs1 readout_name=IC50 meas_value="24.9 µM"
compound="CCOc1ccccc1C1CC(c2ccc(Br)cc2)Nc2nc(N)nn21 (stereo not given)" readout_name=IC50 meas_value="> 100 µM (inactive)"

*Q* Supply recorded IC50 for C/C(=N\NC(=O)c1ccc(CSc2cccc3cccnc23)cc1)C1CCCCC1 here.
*A* 33.8 µM

*Q* Recall and state the measured IC50 for CC(=O)NC(CCS(C)(=O)=O)C(=O)Nc1ccc2c(c1)OCO2 (stereo not given) .
*A* > 100 µM (inactive)

*Q* Output measured IC50 for this item: Cn1c(=O)c2nc(-c3ccccc3)oc2c2ccccc21
*A* > 100 µM (inactive)

*Q* Give the value of IC50 reported for the following: CCN1/C(=C(\O)c2ccccc2)C(=O)c2ccccc2S1(=O)=O
*A* > 100 µM (inactive)

*Q* Identify measured IC50 associated with O=C1C(=O)c2ccccc2-c2ccccc21
*A* 7.79 µM

*Q* Using known records, supply IC50 for Oc1c(Br)cc(Cl)cc1C=Nc1ccccc1Br
*A* 27.1 µM

*Q* Read off the recorded IC50 for CCN1/C(=C/c2ccc3cccc(C)c3[n+]2CC)Sc2ccccc21
*A* 9.8 µM
